This collection of values is drawn from PubChem BioAssay (NCI).

Assignment: determine reported TGI for the given compounds.
# System: LOX IMVI melanoma
# MEASUREMENT NOTES: NCI tumour cell line growth inhibition, 384-well format

| CHEMICAL STRING | TGI |
| --- | --- |
| COCCNCc1ccc(-c2cc3nccc(Oc4ccc(NC(=S)NC(=O)Cc5ccc(F)cc5)cc4F)c3s2)nc1 | 3.46 µM |
| Cc1cccc(N(C)C(=O)[C@@H]2[C@H](O)CCN2c2nc(C)cc(C(F)(F)F)c2C#N)c1 | 80.8 µM |
| CC(=O)c1ccc2c(c1)c1cc(C(C)=O)ccc1n2CCNC(C)C | 0.338 µM |

Next compound, please.
GET /values?readout=TGI&item= `CN(c1ncccc1CNc1nc(Nc2ccc3c(c2)CC(=O)N3)ncc1C(F)(F)F)S(C)(=O)=O` 3.58 µM

----------
# Test system: HOP-62 NSCLC
# MEASUREMENT NOTES: NCI tumour cell line growth inhibition, 384-well format
Assignment: determine reported TGI for the given molecules.
One number for each entry, in µM.

Completed entries (count: 3):
| CHEMICAL STRING | TGI (µM) |
| --- | --- |
| CC(=O)c1ccc2c(c1)c1cc(C(C)=O)ccc1n2CCNC(C)C | 0.755 |
| O=C(Nc1ccc2[nH]nc(-c3ccncc3)c2c1)[C@@H]1CCN(CC(=O)N2CCN(c3ccc(-c4ncccn4)cc3)CC2)C1 | 17.4 |
| CN(c1ncccc1CNc1nc(Nc2ccc3c(c2)CC(=O)N3)ncc1C(F)(F)F)S(C)(=O)=O | 7.83 |

Next molecule, please.
GET /values?readout=TGI&item= `COCCNCc1ccc(-c2cc3nccc(Oc4ccc(NC(=S)NC(=O)Cc5ccc(F)cc5)cc4F)c3s2)nc1` 3.35

----------
# Test system: MDA-MB-468 breast
# MEASUREMENT NOTES: NCI tumour cell line growth inhibition, 384-well format
MEASURED ENDPOINT: TGI
Provide the measurement as a number trailed by its unit.

Completed entries (count: 3):
| CHEMICAL STRING | TGI |
| --- | --- |
| O=C(Nc1ccc2[nH]nc(-c3ccncc3)c2c1)[C@@H]1CCN(CC(=O)N2CCN(c3ccc(-c4ncccn4)cc3)CC2)C1 | 33.8 µM |
| Cc1cccc(N(C)C(=O)[C@@H]2[C@H](O)CCN2c2nc(C)cc(C(F)(F)F)c2C#N)c1 | 38.5 µM |
| COCCNCc1ccc(-c2cc3nccc(Oc4ccc(NC(=S)NC(=O)Cc5ccc(F)cc5)cc4F)c3s2)nc1 | 3.25 µM |

Next molecule, please.
GET /values?readout=TGI&item= `CC(=O)c1ccc2c(c1)c1cc(C(C)=O)ccc1n2CCNC(C)C` 0.306 µM
